TEST_TARGET: T1, huMICA*002 alpha 3-his (human)
T1 construct: whole construct entry: GS, alpha 3 domain, GNS, His8; also called MICA002.His; MICA*002 alpha3 construct
T1 chain: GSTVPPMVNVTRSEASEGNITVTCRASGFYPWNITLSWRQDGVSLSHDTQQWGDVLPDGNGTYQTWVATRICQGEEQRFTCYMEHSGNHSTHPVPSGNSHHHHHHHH
PROTOCOL_DESCRIPTION: SPR, Biacore 8K, antibody on Protein A chip
Listed here: items and their measured pKd.
pKd is a log-scale quantity: -log10 of the concentration expressed in molar.

Reported pKd for 1D5v27 (antibody, IgG1, V domains shown, humanized variant of 1D5) VH: EIQLVQSGAEVKKPGASVKVSCKASGYAFTSQNIYWVRQAPGQGLEWIGYIEPYNVVPAYNPKFKGRATLTVDKSTSTAYLELSSLRSEDTAVYYCARSGSSNFDYWGQGTLVTVSS VL: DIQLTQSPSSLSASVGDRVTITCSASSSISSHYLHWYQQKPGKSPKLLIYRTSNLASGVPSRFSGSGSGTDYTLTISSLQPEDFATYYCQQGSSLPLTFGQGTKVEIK was 8.73

Record 13A9v1 (antibody, IgG1, V domains shown, humanized variant of 13A9) VH: EVQLVQSGAEVKKPGASVKVSCKASGYAFTNYLIEWVRQAPGQGLEWIGAINPGSGATNYNEKFKDRVTITADTSTSTAYLELSSLRSEDTAVYYCARFLGNYFDNWGQGTLVTVSS VL: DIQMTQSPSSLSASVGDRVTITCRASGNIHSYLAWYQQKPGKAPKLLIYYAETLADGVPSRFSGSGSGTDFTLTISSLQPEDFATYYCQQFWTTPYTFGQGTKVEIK . Reported pKd: 8.23

Entry 1D5v13 (antibody, IgG1, V domains shown, humanized variant of 1D5) VH: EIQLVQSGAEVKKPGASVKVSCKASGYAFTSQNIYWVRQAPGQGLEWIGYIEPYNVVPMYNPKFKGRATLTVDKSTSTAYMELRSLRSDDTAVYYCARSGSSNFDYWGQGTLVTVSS VL: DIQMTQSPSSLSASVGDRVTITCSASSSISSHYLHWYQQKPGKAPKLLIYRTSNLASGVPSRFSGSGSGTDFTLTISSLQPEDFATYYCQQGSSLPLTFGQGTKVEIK ; pKd = 8.92
